experiment: mitochondrial membrane potential change in A549 cells, profiling panel, cell-based, JC-1 fluorescence, basal, 24 h, 100 nL (AID 1138); conditions: higher = more signal;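 further: A549 lung adenocarcinoma cells under basal conditions with no added stimulus; test concentration not given here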
So I've got a bunch of compounds here, and I need their z-score values.

Batch request: z-score for each of the following compounds.
1. c1ccc(C2NCCc3c2[nH]c2ccccc32)cc1 (configuration not stated)
2. COc1ccc(OC[C@H]2Cc3c(-c4ccccc4)nc4c(c3CO2)CN(CCOc2ccccc2)CC4)cc1
3. COc1ccc(CCNC(=O)[C@@H]2c3ccccc3C(=O)N(c3ccc(C)cn3)[C@H]2c2ccc(CO)cc2)cc1
4. C[C@@H](c1ccccc1)N1C(=O)[C@H]2[C@H]3[C@H](O)[C@H](O)CC(=NOC[C@@H](O)COCc4ccco4)[C@@H]3CC[C@H]2C1=O

Result ::
-0.104
0.774
-0.61
-0.62

Just for reference, PubChem BioAssay is where these values come from.
